system: HTT mRNA; assay: RT-qPCR splicing assay, HTT canonical (CJ) and alternative (AJ) junction mRNA; type: cell-based, human; settings: Homo sapiens, 24 h, Table 3A; A673 or K562 cells, 24 h treatment; read-out: HTT CJ (IC50, decrease in CJ mRNA)
pIC50: −log10 of the molar value.
For each of the compounds below, state its pIC50.

> print(dat)
                                   compound  measurement.kind  meas.value
1  CN(C1CCC1)[C@H]1CCN(c2ccc(-c3ccc(-c4cn[nH]c4)cc3O)nn2)C1 [Compound 294]             pIC50      > 7.00
2  Cn1cc2cc(-c3ccc(-c4ccc(N5CCC(NC6CCC6)C5)nn4)c(O)c3)cc(F)c2n1 (stereo not drawn) [Compound 328]             pIC50      > 7.00

Shift focus to the following entry.
Input: Please indicate pIC50 recorded for Cc1nnc(-c2cc(O)c(-c3ccc(N4CC[C@H](NCC5CC5)C4)nn3)cc2F)s1 [Compound 401]
Output: 6.00 to 7.00
